- Tested on: HOP-92 NSCLC
- Run description: NCI-60 one-dose screen, 48 h
- Assay conditions: 10 µM unless noted
This is part of a sample that, as a whole, favours compounds with a hit. Of some 83,000 tested, about 20% had one in any assay. Activity calls are given as the source filed them. How the source made its calls: active means growth percent below 10; inactive means the rest.
Pick one and only one: yes (active), no (inactive)

Ask: Returns: the outcome recorded for CCSC1=NC2C(N(CC)C(=O)N2CC)N1/N=C/C=C/c1ccccc1[N+](=O)[O-] (stereo not given) in this assay.
Reply: no

Ask: Returns: the outcome recorded for O=C1/C(=C/c2ccccc2)CCc2nc3ccccc3c(/C=C/c3ccc(Cl)cc3)c21 in this assay.
Reply: no

Ask: Returns: the outcome recorded for O=C(c1ccccc1)N1N=C(c2ccccc2)CC1c1nnc2n(Cc3ccccc3)c(=O)c3c4c(sc3n12)CCCC4 (stereo not given) in this assay.
Reply: no

Ask: Returns: the outcome recorded for Cc1ccc(Cl)cc1NC(=O)c1cc2ccccc2cc1O in this assay.
Reply: yes

Ask: Returns: the outcome recorded for C[n+]1cc2cc(C(N)=O)[nH]c3c(=N)c(Cl)c(N)c1c23 in this assay.
Reply: no

Ask: Returns: the outcome recorded for COc1cccc(-c2nc3sccn3c2-c2ccnc(NCCNS(=O)(=O)c3cccc(F)c3)c2)c1 in this assay.
Reply: no

Ask: Returns: the outcome recorded for c1c[nH]c(CNC2CCCCC2)c1 in this assay.
Reply: no

Ask: Returns: the outcome recorded for Cc1ccc2nc(NC(=O)CSc3nc(-c4ccccc4)c(C#N)c(=O)n3Cc3ccccc3)sc2c1 in this assay.
Reply: no

Ask: Returns: the outcome recorded for O=c1c2cc(F)ccc2sc2c(NCCN3CCCCC3)nc3ccccc3c12 in this assay.
Reply: no

Ask: Returns: the outcome recorded for C=CC(=O)Nc1cccc(Oc2nccc(Nc3nnc(C4CC4)s3)n2)c1 in this assay.
Reply: no

Ask: Returns: the outcome recorded for COc1cc(/C=N/NC(=O)Cn2c(C(C)C)nc3ccccc32)ccc1O in this assay.
Reply: no

Ask: Returns: the outcome recorded for Cn1ccc2c(c1=O)C(=O)c1nccc3c1c-2nc1ccccc13 in this assay.
Reply: no

Ask: Returns: the outcome recorded for O=C(Nc1ccccc1-c1nc2ccccc2c(=O)[nH]1)c1cc2ccccc2[nH]1 in this assay.
Reply: no

Ask: Returns: the outcome recorded for CCN1C(=O)N(CC)C2Nn3c(s/c(=C\c4ccc(Cl)cc4Cl)c3=O)=NC21 (stereo not given) in this assay.
Reply: no

Ask: Returns: the outcome recorded for O=C(Nc1ccccc1Cl)Oc1ccc(-c2ccccc2)cc1 in this assay.
Reply: no

Ask: Returns: the outcome recorded for COc1cc(N2C(=O)c3nccnc3C2=O)cc(OC)c1OC in this assay.
Reply: no

Ask: Returns: the outcome recorded for CC(=O)N1C(=S)NC(=O)C1Cn1c(-c2ccccc2)nc2ccccc21 (stereo not given) in this assay.
Reply: no

Ask: Returns: the outcome recorded for O=[N+]([O-])c1ccc(-c2cc(-c3ccc(Nc4nc(Nc5ccc(Cl)cc5)nc(Nc5ccc(Cl)cc5)n4)cc3)no2)cc1 in this assay.
Reply: no

Ask: Returns: the outcome recorded for COc1cccc(-c2nn(-c3ccccc3)cc2-c2ccnc(NCCNC(=O)c3ccccc3)c2)c1 in this assay.
Reply: no

Ask: Returns: the outcome recorded for COc1cc(-c2n/c(=C\c3c(O)[nH]c4ccc(Cl)cc34)cc3c2=Nc2ccccc2-3)cc(OC)c1OC in this assay.
Reply: yes

Ask: Returns: the outcome recorded for Cc1ccc(S(=O)(=O)N/N=C\c2cc(Cl)ccc2O)cc1 in this assay.
Reply: no

Ask: Returns: the outcome recorded for COc1ccc2cc(-c3cc(OC)c(OC)c(OC)c3)c(=O)oc2c1 in this assay.
Reply: no

Ask: Returns: the outcome recorded for NC(=N\N=C/c1cccc([N+](=O)[O-])c1)/C(N)=N\N=C/c1cccc([N+](=O)[O-])c1 in this assay.
Reply: no

Ask: Returns: the outcome recorded for COc1cc(C2CC(c3ccc(Nc4ccnc5cc(Cl)ccc45)cc3)=NN2C=O)cc(OC)c1OC (stereo not given) in this assay.
Reply: yes

Ask: Returns: the outcome recorded for OC(c1cccc(-n2ccc(C(F)(F)F)n2)c1)c1cnccc1NC1CCCCCC1 (stereo not given) in this assay.
Reply: yes

Ask: Returns: the outcome recorded for Cc1cc(N2CCCC2)nc(NCc2cc(Nc3ccnc4cc(Cl)ccc34)ccc2F)n1 in this assay.
Reply: yes

Ask: Returns: the outcome recorded for COc1ccc2c(c1)[nH]c(=O)c1c3cccnc3cn21 in this assay.
Reply: no

Ask: Returns: the outcome recorded for O=C(N/N=C/C=C/c1ccc([N+](=O)[O-])o1)c1cc2ccccc2cc1O in this assay.
Reply: yes

Ask: Returns: the outcome recorded for S=C(c1ccc2c(c1)OCO2)N1CCN(c2ccccc2Cl)CC1 in this assay.
Reply: no

Ask: Returns: the outcome recorded for Cc1ccc(NS(=O)(=O)c2ccc3c(c2)C2OCCC2C(c2ccc(C(=O)C(C)C)cc2)N3)cc1C (stereo not given) in this assay.
Reply: no

Ask: Returns: the outcome recorded for COc1ccc(-c2nc(SCC(=O)Nc3nc(-c4ccccc4)cs3)[nH]c(=O)c2C#N)cc1 in this assay.
Reply: no

Ask: Returns: the outcome recorded for C=C(C)[C@@H]1CC[C@]2(C(=O)NC3CCCCC3)CC[C@]3(C)[C@H](CC[C@@H]4[C@@]5(C)CCCNC(C)(C)[C@@H]5CC[C@]43C)[C@@H]12 in this assay.
Reply: no

Ask: Returns: the outcome recorded for Cc1nc2c(c(N3CCCc4ccccc43)n1)CCC2 in this assay.
Reply: yes

Ask: Returns: the outcome recorded for COc1ccc(-c2nc(SC(C)C)nc(NNC(N)=S)c2C#N)cc1 in this assay.
Reply: no

Ask: Returns: the outcome recorded for O=c1[nH][n+](-c2ccc(Cl)cc2)no1 in this assay.
Reply: no

Ask: Returns: the outcome recorded for COc1ccc(-c2nc3sccn3c2-c2cc(-c3cc(OC)c(OC)c(OC)c3)on2)cc1 in this assay.
Reply: yes

Ask: Returns: the outcome recorded for O=C1C=C[C@]2(C[C@@H](c3cccc(C(F)(F)F)c3)O[C@@H](c3cccc(C(F)(F)F)c3)O2)O1 in this assay.
Reply: yes

Ask: Returns: the outcome recorded for COc1cccc(-c2nn(-c3ccccc3)cc2-c2ccnc(NCCCNC(=O)c3cccc(C(F)(F)F)c3)c2)c1 in this assay.
Reply: yes

Ask: Returns: the outcome recorded for COc1cc(C(=O)/C=C/c2c(C(F)(F)F)nc3sccn23)cc(OC)c1OC in this assay.
Reply: no

Ask: Returns: the outcome recorded for COc1ccc(-c2nc(SCCC(C)C)nc(N/N=C\c3ccccc3O)c2C#N)cc1 in this assay.
Reply: no
